Read-out record for UniProt P48736: IC50
Sequence (P48736 144-1102 limits assumed): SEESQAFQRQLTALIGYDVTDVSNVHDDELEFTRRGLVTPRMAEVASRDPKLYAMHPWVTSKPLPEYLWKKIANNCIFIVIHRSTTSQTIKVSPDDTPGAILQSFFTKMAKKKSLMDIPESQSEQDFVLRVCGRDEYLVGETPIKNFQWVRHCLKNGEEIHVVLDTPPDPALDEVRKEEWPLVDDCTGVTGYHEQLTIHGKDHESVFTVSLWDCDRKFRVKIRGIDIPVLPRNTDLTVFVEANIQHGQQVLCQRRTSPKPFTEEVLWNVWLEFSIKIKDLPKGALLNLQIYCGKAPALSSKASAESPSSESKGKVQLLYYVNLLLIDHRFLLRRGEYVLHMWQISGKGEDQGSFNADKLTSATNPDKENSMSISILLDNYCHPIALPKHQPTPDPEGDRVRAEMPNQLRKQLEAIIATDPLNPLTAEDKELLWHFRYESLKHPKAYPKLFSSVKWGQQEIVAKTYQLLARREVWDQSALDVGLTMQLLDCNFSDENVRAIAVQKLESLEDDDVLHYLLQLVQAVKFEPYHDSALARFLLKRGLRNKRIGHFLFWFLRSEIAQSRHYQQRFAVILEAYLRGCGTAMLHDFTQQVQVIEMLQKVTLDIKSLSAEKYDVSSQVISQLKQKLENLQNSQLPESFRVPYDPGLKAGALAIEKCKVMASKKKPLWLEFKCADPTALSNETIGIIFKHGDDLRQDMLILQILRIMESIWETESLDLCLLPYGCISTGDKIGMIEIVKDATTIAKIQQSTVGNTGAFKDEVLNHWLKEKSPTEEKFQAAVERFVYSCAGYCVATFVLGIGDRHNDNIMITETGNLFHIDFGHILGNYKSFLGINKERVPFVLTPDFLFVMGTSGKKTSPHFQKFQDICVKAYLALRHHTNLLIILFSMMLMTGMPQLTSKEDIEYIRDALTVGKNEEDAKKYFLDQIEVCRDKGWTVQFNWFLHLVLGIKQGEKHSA
ENDPOINT LABEL: IC50 (nM)

Please review the entries below; each comes with its answer.
COc1cc(-c2cnc3ccc(-c4cnc(N)c(C(F)(F)F)c4)nn23)ccc1C(=O)N1CCN(CC(=O)N2CCOCC2)CC1: 406
COc1cc(-c2ccc3ncc(-c4cnc(N)c(C(F)(F)F)c4)n3n2)ccc1OCCNC(=O)C1CC1: 884
CC(=O)N1CCN(C(=O)c2ccc(-c3cnc4ccc(-c5cnc(N)c(C(F)(F)F)c5)nn34)cc2)CC1: 526
COC(=O)NCCCOc1ccc(-c2ccc3ncc(-c4cnc(N)c(C(F)(F)F)c4)n3n2)cc1OC: 2740
COC(=O)NCC1(COc2ccc(-c3ccc4ncc(-c5cnc(N)c(C(F)(F)F)c5)n4n3)cc2)COC1: 516
Nc1ncc(-c2cnc3ccc(-c4ccc(OCCCN5CCCC5=O)c(F)c4)nn23)cc1C(F)(F)F: 4690

I. Nc1ncc(-c2ccc3ncc(-c4ccc(C(=O)NCCn5ccnc5)cc4F)n3n2)cc1C(F)(F)F
II. CC(C)C(=O)NCC1(COc2ccc(-c3ccc4ncc(-c5cnc(N)c(C(F)(F)F)c5)n4n3)cc2)COC1
Inquiry: // returns I or II , whichever has the lower IC50 Returns: label corresponding to the selected item.
Reply text: I
